Measured values drawn from patent US12281119B2 for this set.

molecular target: human TLR7 (Homo sapiens); experiment: HEK293-Blue hTLR7 reporter assay (QUANTI-BLUE, SEAP readout); type: cell-based; set-up: host or cells: HEK293 (HEK-Blue-hTLR7); conditions: HEK-Blue-hTLR7 cells, QUANTI-BLUE assay (A1-A76), 24 hrs
endpoint_label: pEC50
Scale explanation: pEC50 corresponds to minus log10 of a concentration expressed in moles per litre.

Give the measured pEC50 for CCCCOc1nc(N)c2ncc(Cc3ccc(OCCCN(C)C)cc3)n2n1 [Compound A2]
6.04

Give the measured pEC50 for CCCCOc1nc(N)c2ncc(Cc3ccc(CN4CCCC4)cc3)n2n1 [Compound A1]
6.05

Give the measured pEC50 for CCCCOc1nc(N)c2ncc(Cc3ccc(OCCCN(CC)CC)cc3)n2n1 [Compound A29]
5.58

Give the measured pEC50 for CCCCOc1nc(N)c2ncc(Cc3cnc(OCC(C)(C)CN(C)C)c(Cl)c3)n2n1 [Compound A45]
5.42

Give the measured pEC50 for CCCCOc1nc(N)c2ncc(Cc3ccc(OC4C[C@H]5CC[C@@H](C4)N5CC)cc3F)n2n1 (stereo partly drawn) [Compound A49]
5.36

---

Target: human TLR7 (Homo sapiens, UniProt Q9NYK1)
Sequence (Q9NYK1 27-1049): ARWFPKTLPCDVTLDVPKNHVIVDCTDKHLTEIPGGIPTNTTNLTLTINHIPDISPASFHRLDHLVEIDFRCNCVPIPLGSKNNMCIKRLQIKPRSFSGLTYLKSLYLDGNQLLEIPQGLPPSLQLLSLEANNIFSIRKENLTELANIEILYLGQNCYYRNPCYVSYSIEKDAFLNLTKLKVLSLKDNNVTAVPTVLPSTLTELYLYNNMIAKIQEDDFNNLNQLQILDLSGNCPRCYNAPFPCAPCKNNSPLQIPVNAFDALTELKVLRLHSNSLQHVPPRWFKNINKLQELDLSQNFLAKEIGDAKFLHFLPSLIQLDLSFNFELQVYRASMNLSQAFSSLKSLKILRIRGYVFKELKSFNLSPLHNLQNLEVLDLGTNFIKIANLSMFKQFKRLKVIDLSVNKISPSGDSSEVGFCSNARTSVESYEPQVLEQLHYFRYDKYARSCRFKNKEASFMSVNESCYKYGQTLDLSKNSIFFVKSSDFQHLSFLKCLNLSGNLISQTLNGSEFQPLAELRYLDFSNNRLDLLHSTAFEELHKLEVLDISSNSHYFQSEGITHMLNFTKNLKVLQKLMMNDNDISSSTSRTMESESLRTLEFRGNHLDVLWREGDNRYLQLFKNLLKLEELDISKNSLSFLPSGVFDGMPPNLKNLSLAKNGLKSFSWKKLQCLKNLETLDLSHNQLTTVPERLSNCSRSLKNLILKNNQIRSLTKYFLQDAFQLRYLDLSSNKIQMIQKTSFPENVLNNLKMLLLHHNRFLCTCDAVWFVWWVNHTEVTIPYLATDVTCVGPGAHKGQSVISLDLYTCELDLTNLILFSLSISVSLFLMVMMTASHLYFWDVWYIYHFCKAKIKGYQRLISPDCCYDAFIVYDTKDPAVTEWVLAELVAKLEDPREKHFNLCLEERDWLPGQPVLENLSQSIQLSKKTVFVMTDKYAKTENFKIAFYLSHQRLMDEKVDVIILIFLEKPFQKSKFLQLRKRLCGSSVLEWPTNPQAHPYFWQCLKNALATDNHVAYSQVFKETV
Experiment: HEK293-Blue hTLR7 reporter assay (QUANTI-BLUE, SEAP readout)
Assay type: cell-based
Design: host or cells: HEK293 (HEK-Blue-hTLR7)
Conditions: HEK-Blue-hTLR7 cells, QUANTI-BLUE assay (A1-A76), 24 hrs
endpoint_label: EC50 (nM)
Reply numerically in nM, unit not repeated.

Give the measured EC50 for `CCCCOc1nc(N)c2ncc(Cc3ccc(CN4CCN(C)CC4)cc3)n2n1`
1510

Give the measured EC50 for `CCCCOc1nc(N)c2ncc(Cc3ccc(OCCNC)nc3)n2n1`
246

Give the measured EC50 for `CCCCOc1nc(N)c2ncc(Cc3ccc(CN4C[C@@H]5C[C@H]4CN5)cc3)n2n1`
1590

Give the measured EC50 for `CCCCOc1nc(N)c2ncc(Cc3ccc(OCCCN(C)C)nc3)n2n1`
861

Give the measured EC50 for `CCCCOc1nc(N)c2ncc(Cc3ccc(CN4CCC(N)CC4)cc3)n2n1`
822

---

molecular target: human TLR 8 protein (Homo sapiens); test: TLR8 stimulation determined using HEK-Blue Detection; details: HEK-Blue hTLR8 cells, 16 hr, relative to Resiquimod or Motolimod maximum
Sequence (Q9NR97 27-1041): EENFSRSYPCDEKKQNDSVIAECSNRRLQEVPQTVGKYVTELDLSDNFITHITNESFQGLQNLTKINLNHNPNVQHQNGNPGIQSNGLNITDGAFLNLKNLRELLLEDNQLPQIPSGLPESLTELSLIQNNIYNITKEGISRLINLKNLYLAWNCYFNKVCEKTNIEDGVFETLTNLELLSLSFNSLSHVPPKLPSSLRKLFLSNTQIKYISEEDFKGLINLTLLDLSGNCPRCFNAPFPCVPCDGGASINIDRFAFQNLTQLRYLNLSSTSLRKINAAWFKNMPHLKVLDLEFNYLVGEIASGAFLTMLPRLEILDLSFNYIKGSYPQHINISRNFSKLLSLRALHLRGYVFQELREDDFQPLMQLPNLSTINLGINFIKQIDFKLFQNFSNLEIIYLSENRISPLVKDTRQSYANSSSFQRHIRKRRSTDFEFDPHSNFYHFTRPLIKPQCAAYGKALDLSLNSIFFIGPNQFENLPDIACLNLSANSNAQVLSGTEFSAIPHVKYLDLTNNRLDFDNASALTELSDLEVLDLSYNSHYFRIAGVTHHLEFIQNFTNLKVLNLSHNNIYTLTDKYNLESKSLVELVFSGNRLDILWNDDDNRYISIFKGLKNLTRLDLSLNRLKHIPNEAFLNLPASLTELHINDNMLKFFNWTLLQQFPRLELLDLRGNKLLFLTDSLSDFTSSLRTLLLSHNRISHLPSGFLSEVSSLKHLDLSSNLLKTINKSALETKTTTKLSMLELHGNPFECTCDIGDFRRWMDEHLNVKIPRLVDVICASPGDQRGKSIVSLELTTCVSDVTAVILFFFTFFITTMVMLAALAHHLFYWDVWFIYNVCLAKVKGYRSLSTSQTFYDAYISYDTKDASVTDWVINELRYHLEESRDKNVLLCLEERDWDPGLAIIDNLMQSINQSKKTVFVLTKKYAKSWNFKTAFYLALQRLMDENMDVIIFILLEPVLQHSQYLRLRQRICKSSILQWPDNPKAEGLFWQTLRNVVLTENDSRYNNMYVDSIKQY
I'd be grateful if you could share measured pEC50 for these entries.
Scale explanation: pEC50 corresponds to minus log10 of a concentration expressed in moles per litre.

Give the measured pEC50 for CCC(CC)Oc1nc(N)c2ncc(Cc3ccc(OCCNC)nc3)n2n1 [Compound A83]
6.34

Give the measured pEC50 for CCCC(CCO)Oc1nc(N)c2ncc(Cc3ccc(OCCNC)c(F)c3)n2n1 (centres unmarked) [Compound A91]
7.82

Give the measured pEC50 for CCCC(CCO)Oc1nc(N)c2ncc(Cc3ccc(N(C)CCNC)cc3)n2n1 (centres unmarked) [Compound A94]
6.84

Give the measured pEC50 for CCCC(C)Oc1nc(N)c2ncc(Cc3cnc(OCCNC)c(C)c3)n2n1 (centres unmarked) [Compound A78]
5.95

Give the measured pEC50 for CCCC(CCO)Oc1nc(N)c2ncc(Cc3ccc(OCCNC)cc3)n2n1 (single isomer, unassigned) [Compound A93]
7.87

Give the measured pEC50 for CCCC(CCO)Oc1nc(N)c2ncc(Cc3ccc(OCCNC)c(F)c3F)n2n1 (single isomer, unassigned) [Compound A111]
7.33

Give the measured pEC50 for CCCC(CCO)Oc1nc(N)c2ncc(Cc3ccc(OCCNC)c(F)c3)n2n1 (single isomer, unassigned) [Compound A105]
6.21

Give the measured pEC50 for CCCC(CCO)Oc1nc(N)c2ncc(Cc3ccc(OCCNC)c(C)c3)n2n1 (single isomer, unassigned) [Compound A103]
7.33

Give the measured pEC50 for CCCC(CCO)Oc1nc(N)c2ncc(Cc3ccc(OCCNC)cc3F)n2n1 (centres unmarked) [Compound A97]
8.00

---

molecular target: human TLR7 (Homo sapiens); assay: TLR7 stimulation determined using HEK-Blue Detection; assay type: cell-based; parameters: expressed in transfected cells; host or cells: HEK293 (HEK-Blue hTLR7); details: HEK-Blue hTLR7 cells, HEK-Blue Detection (A77-A124), 16 hr, relative to Resiquimod maximum
endpoint_label: EC50 (nM)
Reply numerically in nM, unit not repeated.

Give the measured EC50 for CCCC(CCO)Oc1nc(N)c2ncc(Cc3ccc(OCCNC)nc3OC)n2n1 (stereo not shown)
4.3

Give the measured EC50 for CCCC(CCO)Oc1nc(N)c2ncc(Cc3ccc(OC(C)CNC)nc3)n2n1 (single isomer, unassigned)
3.4

Give the measured EC50 for CCCC(CCO)Oc1nc(N)c2ncc(Cc3ccc(OCCNC)c(F)c3)n2n1 (single isomer, unassigned) [Compound A105]
61

---

biological target: human TLR7 (Homo sapiens, UniProt Q9NYK1); assay: TLR7 stimulation determined using HEK-Blue Detection; type: cell-based; design: expressed in transfected cells; host or cells: HEK293 (HEK-Blue hTLR7); conditions: HEK-Blue hTLR7 cells, HEK-Blue Detection (A77-A124), 16 hr, relative to Resiquimod maximum
endpoint_label: pEC50
Scale explanation: pEC50 corresponds to minus log10 of a concentration expressed in moles per litre.

Given `CCC[C@H](C)Oc1nc(N)c2ncc(Cc3ccc(OCCNC)cc3)n2n1` , report its pEC50 on human TLR7 (Homo sapiens, UniProt Q9NYK1).
7.82

Given CCCC(CCO)Oc1nc(N)c2ncc(Cc3ccc(OCCNC)c(OC)c3)n2n1 (stereo not shown) , report its pEC50 on human TLR7 (Homo sapiens, UniProt Q9NYK1).
7.96

Given CCCC(CC)Oc1nc(N)c2ncc(Cc3ccc(OCCNC)nc3)n2n1 (stereo not shown) , report its pEC50 on human TLR7 (Homo sapiens, UniProt Q9NYK1).
8.16

Given CCCC(CCO)Oc1nc(N)c2ncc(Cc3ccc(OCCNC)cc3OCC)n2n1 (single isomer, unassigned) , report its pEC50 on human TLR7 (Homo sapiens, UniProt Q9NYK1).
9.20

Given CCCC(CCO)Oc1nc(N)c2ncc(Cc3ccc(OCCNC)c(F)c3F)n2n1 (single isomer, unassigned) , report its pEC50 on human TLR7 (Homo sapiens, UniProt Q9NYK1).
8.72

Given CCCC(CCO)Oc1nc(N)c2ncc(Cc3ccc(OCCNC)cc3F)n2n1 (single isomer, unassigned) [Compound A115] , report its pEC50 on human TLR7 (Homo sapiens, UniProt Q9NYK1).
9.14

Given `CCC(CC)Oc1nc(N)c2ncc(Cc3ccc(OCCNC)nc3)n2n1` , report its pEC50 on human TLR7 (Homo sapiens, UniProt Q9NYK1).
7.37

Given CCCC(CCO)Oc1nc(N)c2ncc(Cc3ccc(OCCCNC)nc3)n2n1 (stereo not shown) , report its pEC50 on human TLR7 (Homo sapiens, UniProt Q9NYK1).
7.24

Given CCCC(CCO)Oc1nc(N)c2ncc(Cc3ccc(CCNC)cc3)n2n1 (single isomer, unassigned) [Compound A120] , report its pEC50 on human TLR7 (Homo sapiens, UniProt Q9NYK1).
8.41

Given CCCC(CCO)Oc1nc(N)c2ncc(Cc3cc(OC)cc(OCCNC)c3)n2n1 (single isomer, unassigned) , report its pEC50 on human TLR7 (Homo sapiens, UniProt Q9NYK1).
7.42

Given CCCC(CCO)Oc1nc(N)c2ncc(Cc3ccc(OCCNC)c(C)c3)n2n1 (single isomer, unassigned) , report its pEC50 on human TLR7 (Homo sapiens, UniProt Q9NYK1).
8.62

Given CCCC(CCO)Oc1nc(N)c2ncc(Cc3ccc(OC)c(OCCNC)c3)n2n1 (single isomer, unassigned) , report its pEC50 on human TLR7 (Homo sapiens, UniProt Q9NYK1).
7.89

Given CCCC(CCO)Oc1nc(N)c2ncc(Cc3ccc(OCCNC)c4ccccc34)n2n1 (single isomer, unassigned) , report its pEC50 on human TLR7 (Homo sapiens, UniProt Q9NYK1).
8.92
